Overview of reported GI50 across a group of molecules:
System: UACC-257
assaySummary: NCI tumour cell line growth inhibition, 48 h
Calls of active or inactive are those of the source. Cut-off read from the data, not from the text of the source: active = GI50 up to about 1.1 µM and inactive = higher.

Past entries and their recorded results:
# molecule, GI50
measured = [
    ("Cc1ccc(S(=O)(=O)N/N=C2\\C=CC3(CC2)C(=O)N(I)c2ccccc23)cc1 (stereo not given)", "> 100 µM (inactive)"),
    ("COc1c(C(=O)/C(=N/Nc2ccccc2)C(C)=O)c(O)c(OC)c2occc12", "34.9 µM (inactive)"),
]

Prompt: Query the reported GI50 for UACC-257; item: "O=C(Nc1ccc(C(F)(F)F)cc1)NC(F)(F)F"
Response: > 100 µM (inactive)

Prompt: Query the reported GI50 for UACC-257; item: COc1cc2c(cc1OC)C1C(O)C(OC)C=C3CC[N+](C)(C2)C31 (stereo not given)
Response: > 100 µM (inactive)

Prompt: Query the reported GI50 for UACC-257; item: O=C1N/C(=N/N=C/C(O)C(O)C(O)C(O)CO)N/C1=C\c1ccco1 (stereo not given)
Response: > 100 µM (inactive)
